Recorded TGI, one value per entry.
Tested on: OVCAR-8 ovarian
assay notes: NCI tumour cell line growth inhibition, 48 h

Answered cases to consult:
[
  {
    "molecule": "NCCCc1nonc1C(=O)O",
    "assayed system": "OVCAR-8 ovarian",
    "TGI": "> 100 µM"
  },
  {
    "molecule": "CCOC(=O)c1nc2ccccc2nc1Oc1ccc(F)cc1",
    "assayed system": "OVCAR-8 ovarian",
    "TGI": "> 100 µM"
  },
  {
    "molecule": "CS(=O)(=O)Sc1ccc(Cl)cc1",
    "assayed system": "OVCAR-8 ovarian",
    "TGI": "21.8 µM"
  },
  {
    "molecule": "COc1cc(CC2c3cc(OC)c(OC)cc3CCN2C)c(C(=O)O)cc1OC (stereo unspecified)",
    "assayed system": "OVCAR-8 ovarian",
    "TGI": "> 100 µM"
  },
  {
    "molecule": "Cc1ccc(Nc2nc3ccccc3nc2NS(=O)(=O)c2ccc(N)cc2)cc1",
    "assayed system": "OVCAR-8 ovarian",
    "TGI": "> 100 µM"
  }
]

Moving on to another molecule below.
So, Cc1cc(Br)ccc1N=NC1C(=O)ON=C1c1ccccc1 (stereo unspecified) ? Its TGI was > 100 µM

Source: PubChem BioAssay (NCI)
